target.system: FLT3 (Homo sapiens, UniProt P36888)
Sequence (P36888 27-993, species assumed): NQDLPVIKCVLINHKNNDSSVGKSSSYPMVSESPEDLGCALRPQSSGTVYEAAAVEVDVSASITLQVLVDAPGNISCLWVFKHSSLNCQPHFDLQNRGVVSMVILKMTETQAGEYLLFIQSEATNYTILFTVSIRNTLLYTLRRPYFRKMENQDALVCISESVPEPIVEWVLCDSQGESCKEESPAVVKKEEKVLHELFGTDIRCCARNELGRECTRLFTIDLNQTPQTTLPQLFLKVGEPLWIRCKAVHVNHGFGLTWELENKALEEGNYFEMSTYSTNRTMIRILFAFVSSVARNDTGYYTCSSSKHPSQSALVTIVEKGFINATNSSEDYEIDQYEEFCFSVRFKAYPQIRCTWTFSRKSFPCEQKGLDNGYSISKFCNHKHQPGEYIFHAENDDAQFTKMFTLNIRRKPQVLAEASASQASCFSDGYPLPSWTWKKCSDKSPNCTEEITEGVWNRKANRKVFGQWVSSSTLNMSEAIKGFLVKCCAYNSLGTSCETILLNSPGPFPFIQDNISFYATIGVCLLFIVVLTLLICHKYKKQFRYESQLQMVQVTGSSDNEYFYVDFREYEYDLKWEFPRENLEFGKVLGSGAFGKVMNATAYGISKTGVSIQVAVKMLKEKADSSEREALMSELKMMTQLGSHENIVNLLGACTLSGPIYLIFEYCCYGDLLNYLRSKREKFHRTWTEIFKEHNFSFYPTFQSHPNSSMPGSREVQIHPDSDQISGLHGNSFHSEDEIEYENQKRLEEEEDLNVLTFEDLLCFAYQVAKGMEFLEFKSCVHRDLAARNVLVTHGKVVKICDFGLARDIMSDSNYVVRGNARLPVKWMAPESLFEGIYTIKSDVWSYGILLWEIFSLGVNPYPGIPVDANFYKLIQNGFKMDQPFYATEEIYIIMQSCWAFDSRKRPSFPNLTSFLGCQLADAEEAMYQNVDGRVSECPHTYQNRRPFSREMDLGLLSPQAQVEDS
protocol.summary: FLT3 Caliper assay
Format: biochemical
protocol.conditions: Table 4; read-out: FLT3 Calipher assay IC50
Description: FLT3/FLT3-ITD Caliper Assays Assays were performed in a 20 μl-volume in 384-well polypropylene microplates (Perkin Elmer Proxiplate, cat. No. 6059480) at ambient temperature. Optimized 1× assay buffer was 50 mM Hepes pH 7.5, 2 mM DTT, 0.01% Tween, 0.01% BSA, 10 mM MgCl2. […] The plates were read on a Caliper microfluidics reader (PerkinElmer, Waltham, MA).
property: IC50

Sample records with IC50:
# smiles.input, target.system, observed.result
data = [
    ("Cn1ccc(-c2cn([C@@H]3O[C@H](C(=O)Nc4cc(NCC(F)F)ccn4)[C@@H](O)[C@H]3O)c3ncnc(N)c23)n1", "FLT3 (Homo sapiens, UniProt P36888)", "≥ 1000 nM"),
    ("Cn1ccc(-c2cn([C@@H]3O[C@H](C(=O)Nc4cccnc4)[C@@H](O)[C@H]3O)c3ncnc(N)c23)n1", "FLT3 (Homo sapiens, UniProt P36888)", "≥ 1000 nM"),
]

Proceed to the following item.
Reported IC50 of Cn1ccc(-c2cn([C@@H]3O[C@H](C(=O)N[C@H]4CCC(=O)NC4)[C@@H](O)[C@H]3O)c3ncnc(N)c23)n1 : ≥ 1000 nM

* * *

target.system: PRMT5-MEP50 (Homo sapiens)
Sequence (O14744 whole entry): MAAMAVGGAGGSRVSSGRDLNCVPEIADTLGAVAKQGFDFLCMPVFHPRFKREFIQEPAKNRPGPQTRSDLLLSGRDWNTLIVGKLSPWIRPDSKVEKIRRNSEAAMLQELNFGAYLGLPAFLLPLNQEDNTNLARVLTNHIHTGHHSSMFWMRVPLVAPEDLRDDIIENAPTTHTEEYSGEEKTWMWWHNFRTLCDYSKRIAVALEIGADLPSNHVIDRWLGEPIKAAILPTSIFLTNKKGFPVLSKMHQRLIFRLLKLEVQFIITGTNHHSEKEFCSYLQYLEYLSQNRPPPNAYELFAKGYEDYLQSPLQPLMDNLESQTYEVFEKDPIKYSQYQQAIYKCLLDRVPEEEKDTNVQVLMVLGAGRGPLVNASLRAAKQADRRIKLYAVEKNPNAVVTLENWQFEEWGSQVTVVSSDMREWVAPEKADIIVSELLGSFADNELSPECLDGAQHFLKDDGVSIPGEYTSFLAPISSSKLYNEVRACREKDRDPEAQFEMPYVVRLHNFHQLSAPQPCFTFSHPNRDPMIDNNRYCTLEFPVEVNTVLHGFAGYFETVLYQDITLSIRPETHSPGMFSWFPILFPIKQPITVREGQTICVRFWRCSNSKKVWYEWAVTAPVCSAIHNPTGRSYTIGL
Sequence (Q9BQA1 whole entry partner): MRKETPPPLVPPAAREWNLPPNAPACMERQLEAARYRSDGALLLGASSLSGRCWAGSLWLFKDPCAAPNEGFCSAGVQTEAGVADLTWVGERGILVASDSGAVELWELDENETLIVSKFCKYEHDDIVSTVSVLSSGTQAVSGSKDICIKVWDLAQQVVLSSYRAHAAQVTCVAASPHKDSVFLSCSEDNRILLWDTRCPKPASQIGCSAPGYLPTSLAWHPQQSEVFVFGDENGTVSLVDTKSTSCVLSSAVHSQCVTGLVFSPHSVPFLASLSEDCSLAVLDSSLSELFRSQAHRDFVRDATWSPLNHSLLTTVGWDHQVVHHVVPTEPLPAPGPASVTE
protocol.summary: PRMT5 assay (3H-SAM flashplate)
protocol.conditions: Table 3; PRMT5 biochemical assay
property: IC50

Reported IC50 of Cn1ccc(-c2cn([C@@H]3O[C@H](C(=O)NCc4ccccc4)[C@@H](O)[C@H]3O)c3ncnc(N)c23)n1 : ≥ 1000 nM

Reported IC50 of Cn1ccc(-c2cn([C@@H]3O[C@H](C(=O)NCc4cnccn4)[C@@H](O)[C@H]3O)c3ncnc(N)c23)n1 : ≥ 1000 nM

Reported IC50 of Cn1ccc(-c2cn([C@@H]3O[C@H](C(=O)N(CC[C@H](N)C(=O)O)C4CCNCC4)[C@@H](O)[C@H]3O)c3ncnc(N)c23)n1 : ≥ 1000 nM

Reported IC50 of COCCNC(=O)[C@H]1O[C@@H](n2cc(-c3ccn(C)n3)c3c(N)ncnc32)[C@H](O)[C@@H]1O : ≥ 1000 nM

Reported IC50 of Nc1ncnc2c1ccn2[C@@H]1O[C@H](C(=O)NCC2CCN(CC(F)F)CC2)[C@@H](O)[C@H]1O : ≥ 1000 nM

Reported IC50 of Cn1ccc(-c2cn([C@@H]3O[C@H](C(=O)NCC4CCN(CC(F)F)CC4)[C@@H](O)[C@H]3O)c3ncnc(N)c23)n1 : 100 to 1000 nM

Reported IC50 of COCCN(C(=O)[C@H]1O[C@@H](n2cc(-c3ccn(C)n3)c3c(N)ncnc32)[C@H](O)[C@@H]1O)C1CCNCC1 : < 10 nM

Reported IC50 of Cn1ccc(-c2cn([C@@H]3O[C@H](C(=O)NCC4CCC(F)(F)CC4)[C@@H](O)[C@H]3O)c3ncnc(N)c23)n1 : 100 to 1000 nM

Reported IC50 of Cn1ccc(-c2cn([C@@H]3O[C@H](C(=O)N(CCCO)C4CCNCC4)[C@@H](O)[C@H]3O)c3ncnc(N)c23)n1 : < 10 nM

Reported IC50 of Cn1ccc(-c2cn([C@@H]3O[C@H](C(=O)NCC4CCN(CCO)CC4)[C@@H](O)[C@H]3O)c3ncnc(N)c23)n1 : 10 to 100 nM

Reported IC50 of Cn1ccc(-c2cn([C@@H]3O[C@H](C(=O)NCC4CCNCC4)[C@@H](O)[C@H]3O)c3ncnc(N)c23)n1 : 10 to 100 nM

Reported IC50 of Cn1ccc(-c2cn([C@@H]3O[C@H](C(=O)Nc4ccc5ccc(N6CCC6)nc5c4)[C@@H](O)[C@H]3O)c3ncnc(N)c23)n1 : 10 to 100 nM

The reported numbers originate from patent US20240051985A1.
